- System: Hek293T
- METHOD SUMMARY: Primary qHTS to identify gynecologic anti-cancer compounds using libraries of approved drugs and bioactive compounds (AID 1345084); also: nearly all actives have a fitted effect of over 55% in size
- COND: Gynecologic cancer cell panel viability, ATPlite luminescence, 48 h, control line for the selectivity index; series mostly up to 57.5 µM
Results filed as inconclusive are left out. The source made the active and inactive calls. Calls follow the shape of the dose curve; as a rule, active = well fitted cell-killing curve with a large enough effect; inconclusive = small, poorly fitted or top-dose-only effect, or effect the other way; inactive = flat fitted curve, though single readings scatter.
Bench note: report the call from y = active, n = inactive

Illustrative cases are given below, each with its answer.
- COc1cc2occc2c(O[C@@H]2O[C@H](CO)[C@@H](O)[C@H](O)[C@H]2O)c1CCC(=O)O: n
- COc1ncc2cc(C(=O)Nc3cc(C(=O)NCc4cccc(Cl)c4)ccc3Cl)c(=O)[nH]c2n1: n
- C=C(CO[C@@H]1O[C@H](CO[C@@H]2OC[C@](O)(CO)[C@H]2O)[C@@H](O)[C@H](O)[C@H]1O)C1Cc2cc(C(C)=O)ccc2O1 (stereo partly drawn): n
- COc1ccc(-c2ccc(-c3cn(C(=O)N4CCCCC4c4ccccc4)nn3)cc2)cc1 (stereo not drawn): n
- CCc1cccc(CC)c1NC(=O)c1nn(C)c2c1CCc1cnc(Nc3ccc(C(=O)NC4CCN(C)CC4)cc3OC(F)(F)F)nc1-2: n
- CCNC(=O)Nc1ccc(-c2nc3c(c(N4CCOC[C@@H]4C)n2)CCN(c2ncccn2)C3)cc1: y
- C/C=C1\[C@H](O[C@@H]2O[C@H](CO)[C@@H](O)[C@H](O)[C@H]2O)OC=C2C(=O)OCCc3ccc(O)c(c3)Oc3ccc(cc3)CCOC(=O)C[C@H]21: n

Entry C[C@H](C(=O)NC1CCCC1)N(C(=O)Cn1nnc(-c2ccc3c(c2)OCO3)n1)C1CCCCC1 : call = ?
n
